Biological target: T1, human MSLN-FL-his protein (human, UniProt Q13421 296-580)
T1 construct: Made in HEK293E cells, purified on nickel column; it is put last here; also called human MSLN full-length protein; hMSLN-FL-his; not shown: His tag
T1 sequence (Q13421 other isoform, or with tags, fused parts or gaps): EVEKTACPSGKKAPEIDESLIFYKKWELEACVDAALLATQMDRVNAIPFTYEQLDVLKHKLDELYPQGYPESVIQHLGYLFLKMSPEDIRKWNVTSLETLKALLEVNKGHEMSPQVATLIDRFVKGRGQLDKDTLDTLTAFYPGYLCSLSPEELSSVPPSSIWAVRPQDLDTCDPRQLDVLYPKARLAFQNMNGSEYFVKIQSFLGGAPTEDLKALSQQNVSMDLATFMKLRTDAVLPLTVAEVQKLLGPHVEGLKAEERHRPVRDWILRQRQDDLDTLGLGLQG
Assay: ELISA on coated antigen, antibody 0.1 nM
The reader will find reported OD450 values listed item by item below.
Write down the numeric answer in OD and omit the unit.

Query :: Give the reported value of OD450 for this record: S009-F8-13.8 (antibody, human IgG1, kappa, V domains shown, Human-murine chimeric antibody, human IgG1 heavy and kappa light constant regions) VH: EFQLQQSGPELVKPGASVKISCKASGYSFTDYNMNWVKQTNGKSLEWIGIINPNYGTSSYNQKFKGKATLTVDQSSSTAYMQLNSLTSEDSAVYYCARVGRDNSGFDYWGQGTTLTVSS VL: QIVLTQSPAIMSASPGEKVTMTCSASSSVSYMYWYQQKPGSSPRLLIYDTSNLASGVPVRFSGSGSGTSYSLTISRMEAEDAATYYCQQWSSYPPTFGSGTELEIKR
Result :: 1.18

Query :: Query OD450 for S009-F8-7.5 (antibody, human IgG1, kappa, V domains shown, Human-murine chimeric antibody, human IgG1 heavy and kappa light constant regions) VH: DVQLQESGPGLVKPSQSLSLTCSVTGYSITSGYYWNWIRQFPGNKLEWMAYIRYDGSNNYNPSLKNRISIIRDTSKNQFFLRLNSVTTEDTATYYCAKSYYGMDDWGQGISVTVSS VL: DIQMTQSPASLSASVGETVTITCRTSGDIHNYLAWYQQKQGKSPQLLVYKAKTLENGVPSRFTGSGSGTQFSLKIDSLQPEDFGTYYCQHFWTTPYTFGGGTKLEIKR
Result :: 1.88

Query :: Respond only with OD450 recorded for S009-F8-8.22 (antibody, human IgG1, kappa, V domains shown, Human-murine chimeric antibody, human IgG1 heavy and kappa light constant regions) VH: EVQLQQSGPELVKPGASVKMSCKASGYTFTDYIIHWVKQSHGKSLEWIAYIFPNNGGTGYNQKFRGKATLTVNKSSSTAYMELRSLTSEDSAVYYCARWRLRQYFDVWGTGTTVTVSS VL: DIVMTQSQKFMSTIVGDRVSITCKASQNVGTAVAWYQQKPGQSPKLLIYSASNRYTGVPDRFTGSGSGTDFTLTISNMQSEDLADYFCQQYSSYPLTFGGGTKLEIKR
Result :: 1.97

Query :: // fetch OD450 given entry S009-F8-29.1 (antibody, human IgG1, kappa, V domains shown, Human-murine chimeric antibody, human IgG1 heavy and kappa light constant regions) VH: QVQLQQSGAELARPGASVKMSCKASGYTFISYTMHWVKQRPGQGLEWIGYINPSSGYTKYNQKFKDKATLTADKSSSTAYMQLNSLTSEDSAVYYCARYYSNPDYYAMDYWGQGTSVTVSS VL: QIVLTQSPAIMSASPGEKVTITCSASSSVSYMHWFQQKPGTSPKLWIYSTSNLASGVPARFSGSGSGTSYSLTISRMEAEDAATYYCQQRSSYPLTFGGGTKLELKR
Result :: 1.71
